molecular target: CYP2C9 (Homo sapiens, UniProt P11712); construct: tissue BD-Gentest 452117; host or cells: human liver microsomes; assay: CYP inhibition assay in human liver microsome, CYP2C9; assay type: in vitro ADME; details: human, liver microsomes, probe diclofenac, HLM, diclofenac substrate, read-out: CYP inhibition % @10 uM (2C9)
Sequence (P11712 whole entry): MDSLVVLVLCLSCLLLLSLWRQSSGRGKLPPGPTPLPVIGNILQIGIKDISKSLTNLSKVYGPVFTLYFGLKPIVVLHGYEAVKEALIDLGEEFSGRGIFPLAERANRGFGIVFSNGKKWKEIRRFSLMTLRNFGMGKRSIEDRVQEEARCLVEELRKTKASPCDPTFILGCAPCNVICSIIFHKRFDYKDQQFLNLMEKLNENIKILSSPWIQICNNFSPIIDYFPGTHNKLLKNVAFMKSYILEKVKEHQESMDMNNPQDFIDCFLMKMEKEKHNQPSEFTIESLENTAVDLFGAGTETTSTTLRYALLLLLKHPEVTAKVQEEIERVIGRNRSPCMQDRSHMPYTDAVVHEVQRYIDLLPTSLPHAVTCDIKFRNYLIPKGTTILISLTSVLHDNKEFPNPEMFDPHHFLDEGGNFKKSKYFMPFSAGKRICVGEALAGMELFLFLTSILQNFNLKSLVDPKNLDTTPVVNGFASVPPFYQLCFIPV
readout-name: inhibition at 5 min, 10 µM
Enter the number, and then the unit.

Give its inhibition at 5 min, 10 µM value. Item: C[C@@H]1CN(c2ccc(C(F)(F)F)c3ncccc23)C[C@H](C(=O)NC2C3CCC2CNC3)O1 (stereo partly shown) -1%

Field entry: CC(NC(=O)[C@H]1CN(c2ccc(C(F)(F)F)c3ncccc23)C[C@@H](C)O1)C1CN(C)CCO1 (single isomer, unassigned) [Example 35A] 10%

Field entry: "C[C@@H]1CN(c2ccc([N+](=O)[O-])c3ncccc23)C[C@H](C(=O)NC2CCN(C)CC2)O1" -6%

Field entry: "Cc1ccc(N2C[C@@H](C)O[C@@H](C(=O)NC3CCN(C)CC3)C2)c2cccnc12" -8%
